The measured values listed here are drawn from patent US11071735B2.

- Target: GLUT1 (Homo sapiens, UniProt P11166)
- Construct: endogenous in cells; host or cells: DLD1 WT cancer cells
- Protocol Description: glycolysis assay in DLD1 WT cells (rely on GLUT1)
- Format: cell-based
- Assay Setup: DLD1-WT cells; 10 μM oligomycin, one hour
I'd appreciate it if you could supply log10 of IC50 values for the items below.
Short version: log10 scale, IC50, nM.

Look over these answered cases.
>>> assay_value("CCOc1ccc2nc(-c3cccc(OCC(=O)NC(C)CC)c3)nc(Nc3ccc(-c4cn[nH]c4)cc3)c2c1 (stereo not drawn)")
2.00
>>> assay_value("CC(C)NC(=O)COc1cccc(-c2nc(Nc3ccc(-c4cn[nH]c4)cc3)c3cc(OC(C)C)ccc3n2)c1")
1.69
>>> assay_value("CCOc1ccc2nc(-c3cccc(OCC(=O)NCC(C)C)c3)nc(Nc3ccc(-c4cn[nH]c4)cc3)c2c1")
2.52
>>> assay_value("CC(C)(C)NC(=O)COc1cccc(-c2nc(Nc3ccc(-c4cn[nH]c4)cc3)c3cc(OCCF)ccc3n2)c1")
1.82
>>> assay_value("CCOc1ccc2nc(-c3cccc(OCC(=O)NC(C)C)c3)nc(Nc3ccc(-c4cc[nH]n4)cc3)c2c1")
2.70
>>> assay_value("CC[C@H](C)NC(=O)COc1cccc(-c2nc(Nc3ccc(-c4cn[nH]c4)cc3)c3cc(OC)ccc3n2)c1")
1.85
>>> assay_value("CCCNC(=O)COc1cccc(-c2nc(Nc3ccc(-c4cn[nH]c4)cc3)c3cc(OC)ccc3n2)c1")
2.78
>>> assay_value("CCOc1ccc2nc(-c3cccc(OCC(=O)NC(CC)CC)c3)nc(Nc3ccc(-c4cn[nH]c4)cc3)c2c1")
1.99

-- ask Query for GLUT1 (Homo sapiens, UniProt P11166): what log10 of IC50 does the record show for `COc1ccc2nc(-c3cccc(OCC(=O)NC4CC(F)(F)C4)c3)nc(Nc3ccc(-c4cn[nH]c4)cc3)c2c1` ?
-- reply 2.55

###

I'd appreciate it if you could supply IC50 values for the items below.
- Target: GLUT1 (Homo sapiens, UniProt P11166)
- Construct: endogenous in cells; host or cells: DLD1 WT cancer cells
- Sequence (P11166 1-492): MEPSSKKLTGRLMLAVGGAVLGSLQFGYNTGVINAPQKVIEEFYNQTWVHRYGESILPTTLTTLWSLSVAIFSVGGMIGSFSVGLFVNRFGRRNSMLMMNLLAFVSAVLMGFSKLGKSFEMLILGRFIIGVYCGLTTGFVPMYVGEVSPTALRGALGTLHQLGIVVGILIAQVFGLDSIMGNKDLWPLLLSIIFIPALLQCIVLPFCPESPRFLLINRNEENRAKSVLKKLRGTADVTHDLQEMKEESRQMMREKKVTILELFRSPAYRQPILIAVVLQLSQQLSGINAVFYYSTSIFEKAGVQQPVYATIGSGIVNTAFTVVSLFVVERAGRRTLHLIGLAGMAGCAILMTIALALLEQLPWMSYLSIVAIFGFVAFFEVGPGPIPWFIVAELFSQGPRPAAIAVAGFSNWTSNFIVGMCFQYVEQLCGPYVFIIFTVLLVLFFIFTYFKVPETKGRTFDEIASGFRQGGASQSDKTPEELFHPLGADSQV
- Protocol Description: glycolysis assay in DLD1 WT cells (rely on GLUT1)
- Type: cell-based
- Assay Setup: DLD1-WT cells; 10 μM oligomycin, one hour
Answers are plain numbers, in nM.

>>> assay_value("CC(C)(C)NC(=O)COc1cccc(-c2nc(Nc3ccc(-c4cn[nH]c4)cc3)c3cc(F)ccc3n2)c1")
124

For each entry beneath this line, provide reported IC50.
1. CC(C)(C)NC(=O)COc1cccc(-c2nc(Nc3ccc(-c4cn[nH]c4)cc3)c3ccc(F)cc3n2)c1
2. CCC(C)NC(=O)COc1cccc(-c2nc(Nc3ccc(-c4cn[nH]c4)cc3)c3cc(OC)ccc3n2)c1 (stereo not shown)
3. COc1ccc2nc(-c3cccc(OCC(=O)NC(CF)CF)c3)nc(Nc3ccc(-c4cn[nH]c4)cc3)c2c1
4. COc1ccc2nc(-c3cc(F)cc(OCC(=O)NC(C)C)c3)nc(Nc3ccc(-c4cn[nH]c4)cc3)c2c1
5. CCCOc1ccc2nc(-c3cccc(OCC(=O)NC(C)(C)C)c3)nc(Nc3ccc(-c4cn[nH]c4)cc3)c2c1
6. CC[C@H](C)NC(=O)COc1cccc(-c2nc(Nc3ccc(-c4cn[nH]c4)cc3)c3cc(OCCOC)ccc3n2)c1
7. CCC(C)NC(=O)COc1cccc(-c2nc(Nc3ccc(-c4cn[nH]c4)cc3)c3cc(OCCF)ccc3n2)c1 (stereo not shown)

-- reply
1: 624; 2: 105; 3: 463; 4: 3480; 5: 89.3; 6: 25.2; 7: 34.4

For each entry beneath this line, provide reported IC50.
1. CCOc1ccc2nc(-c3cccc(OCC(=O)NC4CCC4)c3)nc(Nc3ccc(-c4cn[nH]c4)cc3)c2c1
2. COc1ccc2nc(-c3cccc(OCC(=O)NC4CCCC4)c3)nc(Nc3ccc(-c4cn[nH]c4)cc3)c2c1

-- reply
1. 94
2. 40.5
